Assay: Plasma Stability Assay (LC-MS)
Assay type: in vitro ADME
Conditions: male, Sprague-Dawley, rat
Description: Plasma Stability Assay: Materials: Working solution: 1 mg/mL test article is prepared in Milli-Q water Extraction solution: Methanol:Acetonitrile:Water (1:1:1) with 0.1% Formic Acid and 400 ng/mL Glyburide. Plasma: Male Sprague-Dawley rat plasma (with sodium heparin), purchased from Bioreclamation LLC (Liverpool, N.Y.). Test article was prepared in one of the following biological matrices: heparinized rat plasma, heparinized rat whole blood or lung homogenate. […]
Where a SMILES comes first, the peptide text is derived from it. [ ]: non-standard residue; d: D form. pGlu = O=C1CC[C@@H](C(=O)O)N1; dNle = CCCC[C@@H](N)C(=O)O
measure-name: half-life at 5000 ng/mL

{"compound": "CCCC[C@@H](NC(=O)[C@@H]1CCCN1C(=O)CNC(=O)[C@H](CCCCN)NC(=O)[C@H](Cc1c[nH]cn1)NC(=O)[C@@H](C)NC(=O)[C@H](CC(C)C)NC(=O)[C@H](CCCNC(=N)N)NC(=O)[C@@H]1CCCN1C(=O)[C@H](CCCNC(=N)N)NC(=O)[C@@H]1CCC(=O)N1)C(=O)N[C@H](CC(C)C)C(=O)N[C@H](Cc1ccccc1)C(=O)O [Example 14, pE-R-P-R-L-a-H-K-G-P-nle-(D-Leu)-f-OH] ([pGlu]RPRL[dA]HKGP[dNle][dL][dF]-OH)", "result": "6.75 h"}

----------
target: UniProt:P35414; test: hAPJ Calcium Flux Assay; type: cell-based; details: Chem-5 APJ stable cells, FLIPR calcium flux stimulation; read-out: hAPJ Ca^2+ Flux EC50
pEC50: −log10 of the molar value. Where a SMILES comes first, the peptide text is derived from it. [ ]: non-standard residue; d: D form. pGlu = O=C1CC[C@@H](C(=O)O)N1; dNle = CCCC[C@@H](N)C(=O)O
measure-name: pEC50

{"molecule": "CCCC[C@@H](NC(=O)[C@@H]1CCCN1C(=O)CNC(=O)[C@H](CCCCN)NC(=O)[C@@H](Cc1c[nH]cn1)NC(=O)[C@H](C)NC(=O)[C@H](CC(C)C)NC(=O)[C@H](CCCNC(=N)N)NC(=O)[C@@H]1CCCN1C(=O)[C@H](CCCNC(=N)N)NC(=O)[C@@H]1CCC(=O)N1)C(=O)N[C@H](C)C(=O)N[C@H](Cc1ccccc1)C(=O)O", "measure-name": "pEC50", "number": 7.26}
{"molecule": "CCCC[C@@H](NC(=O)[C@@H]1CCCN1C(=O)CNC(=O)[C@H](CCCCN)NC(=O)[C@H](Cc1c[nH]cn1)NC(=O)[C@@H](CCCCN)NC(=O)[C@H](CC(C)C)NC(=O)[C@H](CCCNC(=N)N)NC(=O)[C@@H]1CCCN1C(=O)[C@H](CCCNC(=N)N)NC(=O)[C@@H]1CCC(=O)N1)C(=O)N[C@H](C)C(=O)N[C@H](Cc1ccccc1)C(=O)O [Example 11, pE-R-P-R-L-k-H-K-G-P-nle-a-f-OH] ([pGlu]RPRL[dK]HKGP[dNle][dA][dF]-OH)", "measure-name": "pEC50", "number": 5.97}
{"molecule": "CCCC[C@@H](NC(=O)[C@@H]1CCCN1C(=O)CNC(=O)[C@H](CCCCN)NC(=O)[C@H](Cc1c[nH]cn1)NC(=O)[C@@H](C)NC(=O)[C@H](CC(C)C)NC(=O)[C@H](CCCNC(=N)N)NC(=O)[C@@H]1CCCN1C(=O)[C@H](CCCNC(=N)N)NC(=O)[C@@H]1CCC(=O)N1)C(=O)N[C@H](C)C(=O)N[C@H](Cc1ccc(O)cc1)C(=O)O [Example 21, pE-R-P-R-L-a-H-K-G-P-nle-a-y-OH] ([pGlu]RPRL[dA]HKGP[dNle][dA][dY]-OH)", "measure-name": "pEC50", "number": 9.05}

----------
Molecular target: UniProtKB P35414
Sequence (P35414 1-380): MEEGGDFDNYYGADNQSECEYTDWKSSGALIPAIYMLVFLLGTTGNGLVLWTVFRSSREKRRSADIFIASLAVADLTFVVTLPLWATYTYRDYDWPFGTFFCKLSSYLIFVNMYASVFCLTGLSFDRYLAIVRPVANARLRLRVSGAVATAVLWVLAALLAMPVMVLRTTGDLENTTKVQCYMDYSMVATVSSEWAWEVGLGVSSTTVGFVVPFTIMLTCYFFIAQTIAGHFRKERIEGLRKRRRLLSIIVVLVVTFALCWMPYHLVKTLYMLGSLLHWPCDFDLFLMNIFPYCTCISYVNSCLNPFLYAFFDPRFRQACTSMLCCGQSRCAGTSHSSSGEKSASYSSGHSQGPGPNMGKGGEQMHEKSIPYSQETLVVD
Test: hAPJ Calcium Flux Assay
Format: cell-based
Settings: Chem-5 APJ stable cells, FLIPR calcium flux stimulation; read-out: hAPJ Ca^2+ Flux EC50
pEC50: −log10 of the molar value. Where a SMILES comes first, the peptide text is derived from it. [ ]: non-standard residue; d: D form. Cha = N[C@@H](CC1CCCCC1)C(=O)O; pGlu = O=C1CC[C@@H](C(=O)O)N1; dNle = CCCC[C@@H](N)C(=O)O
# Lookup of reported pEC50 keyed by entry

{"molecule": "CCCC[C@@H](NC(=O)[C@@H]1CCCN1C(=O)CNC(=O)[C@H](CCCCN)NC(=O)[C@H](CC(C)C)NC(=O)[C@@H](C)NC(=O)[C@H](CC(C)C)NC(=O)[C@H](CCCNC(=N)N)NC(=O)[C@@H]1CCCN1C(=O)[C@H](CCCNC(=N)N)NC(=O)[C@@H]1CCC(=O)N1)C(=O)N[C@H](C)C(=O)N[C@H](Cc1ccccc1)C(=O)O [Example 47, pE-R-P-R-L-a-L-K-G-P-nle-a-f-OH] ([pGlu]RPRL[dA]LKGP[dNle][dA][dF]-OH)", "pEC50": 8.36}
{"molecule": "CCCC[C@H](NC(=O)[C@@H]1CCCN1C(=O)CNC(=O)[C@H](CCCCN)NC(=O)[C@H](Cc1c[nH]cn1)NC(=O)[C@@H](C)NC(=O)[C@H](CC(C)C)NC(=O)[C@H](CCCNC(=N)N)NC(=O)[C@@H]1CCCN1C(=O)[C@H](CCCNC(=N)N)NC(=O)[C@@H]1CCC(=O)N1)C(=O)N[C@H](C)C(=O)N[C@@H](Cc1ccccc1)C(=O)O [Example 39, pE-R-P-R-L-a-H-K-G-P-Nle-a-F-OH]", "pEC50": 8.35}
{"molecule": "CCCC[C@@H](NC(=O)[C@@H]1CCCN1C(=O)CNC(=O)[C@H](CCCCN)NC(=O)[C@H](Cc1c[nH]cn1)NC(=O)[C@@H](C)NC(=O)[C@H](CC1CCCCC1)NC(=O)[C@H](CCCNC(=N)N)NC(=O)[C@@H]1CCCN1C(=O)[C@H](CCCNC(=N)N)NC(=O)[C@@H]1CCC(=O)N1)C(=O)N[C@H](C)C(=O)N[C@H](Cc1ccccc1)C(=O)O [Example 23, pE-R-P-R-Cha-a-H-K-G-P-nle-a-f-OH] ([pGlu]RPR[Cha][dA]HKGP[dNle][dA][dF]-OH)", "pEC50": 8.55}

----------
assay: Surrogate Activity-Based Plasma Stability Assay; type: in vitro ADME; settings: rat, Surrogate activity-based Plasma stability t½
Where a SMILES comes first, the peptide text is derived from it. [ ]: non-standard residue; d: D form. The star is where a group is joined. pGlu = O=C1CC[C@@H](C(=O)O)N1; dNle = CCCC[C@@H](N)C(=O)O; dNva = CCC[C@@H](N)C(=O)O; tBu = CC(C)(C)*
# Lookup of reported half-life keyed by entry

{"compound": "CCCC[C@@H](NC(=O)[C@@H]1CCCN1C(=O)CNC(=O)[C@H](CCCCN)NC(=O)[C@H](Cc1c[nH]cn1)NC(=O)[C@@H](CCC)NC(=O)[C@H](CC(C)C)NC(=O)[C@H](CCCNC(=N)N)NC(=O)[C@@H]1CCCN1C(=O)[C@H](CCCNC(=N)N)NC(=O)[C@@H]1CCC(=O)N1)C(=O)N[C@H](C)C(=O)N[C@H](Cc1ccccc1)C(=O)O [Example 52, pE-R-P-R-L-nva-H-K-G-P-nle-a-f-OH] ([pGlu]RPRL[dNva]HKGP[dNle][dA][dF]-OH)", "half-life": "> 1000 min"}
{"compound": "CCCC[C@@H](NC(=O)[C@@H]1CCCN1C(=O)CNC(=O)[C@H](CCCCN)NC(=O)[C@H](Cc1c[nH]cn1)NC(=O)[C@@H](CSC(C)(C)C)NC(=O)[C@H](CC(C)C)NC(=O)[C@H](CCCNC(=N)N)NC(=O)[C@@H]1CCCN1C(=O)[C@H](CCCNC(=N)N)NC(=O)[C@@H]1CCC(=O)N1)C(=O)N[C@H](C)C(=O)N[C@H](Cc1ccccc1)C(=O)O [Example 7, pE-R-P-R-L-c(tBu)-H-K-G-P-nle-a-f-OH] ([pGlu]RPRL[dC](tBu)HKGP[dNle][dA][dF]-OH)", "half-life": "> 1000 min"}
{"compound": "CCCC[C@@H](NC(=O)[C@@H]1CCCN1C(=O)CNC(=O)[C@H](CCCCN)NC(=O)[C@H](Cc1c[nH]cn1)NC(=O)[C@@H](CCCCN)NC(=O)[C@H](CC(C)C)NC(=O)[C@H](CCCNC(=N)N)NC(=O)[C@@H]1CCCN1C(=O)[C@H](CCCNC(=N)N)NC(=O)[C@@H]1CCC(=O)N1)C(=O)N[C@H](C)C(=O)N[C@H](Cc1ccccc1)C(=O)O [Example 11, pE-R-P-R-L-k-H-K-G-P-nle-a-f-OH] ([pGlu]RPRL[dK]HKGP[dNle][dA][dF]-OH)", "half-life": "> 1000 min"}
{"compound": "CCCC[C@@H](NC(=O)[C@@H]1CCCN1C(=O)CNC(=O)[C@H](CCCCN)NC(=O)[C@H](Cc1c[nH]cn1)NC(=O)[C@@H](C)NC(=O)[C@H](CC(C)C)NC(=O)[C@H](CCCNC(=N)N)NC(=O)[C@@H]1CCCN1C(=O)[C@H](CCCNC(=N)N)NC(=O)[C@@H]1CCC(=O)N1)C(=O)N1CCC[C@@H]1C(=O)N[C@H](Cc1ccccc1)C(=O)O [Example 13, pE-R-P-R-L-a-H-K-G-P-nle-p-f-OH] ([pGlu]RPRL[dA]HKGP[dNle][dP][dF]-OH)", "half-life": "> 1000 min"}
{"compound": "CCCC[C@@H](NC(=O)[C@@H]1CCCN1C(=O)CNC(=O)[C@H](CCCCN)NC(=O)[C@H](Cc1c[nH]cn1)NC(=O)[C@@H](CC(C)C)NC(=O)[C@H](CC(C)C)NC(=O)[C@H](CCCNC(=N)N)NC(=O)[C@@H]1CCCN1C(=O)[C@H](CCCNC(=N)N)NC(=O)[C@@H]1CCC(=O)N1)C(=O)N[C@H](C)C(=O)N[C@H](Cc1ccccc1)C(=O)O [Example 10, pE-R-P-R-L-(D-Leu)-H-K-G-P-nle-a-f-OH] ([pGlu]RPRL[dL]HKGP[dNle][dA][dF]-OH)", "half-life": "> 1000 min"}
